Attribution: ChEMBL document CHEMBL1201862

# GI50 per entry
- Tested on: UACC-257
- test-protocol: NCI tumour cell line growth inhibition, 48 h
Calls of active or inactive are those of the source. Rule as the data show it: active = GI50 up to about 1.1 µM and inactive = higher.

Consider the following illustrative entries.
- O=P1(N(CCCl)CCCl)Oc2c(Cl)cc(Cl)c(Cl)c2Cc2c(Cl)c(Cl)cc(Cl)c2O1: 59.7 µM (inactive)
- COc1ccc(Nc2nc3ccc(C(F)(F)F)cc3nc2-c2ccccc2)cc1OC: 38.5 µM (inactive)
- NS(=O)(=O)c1cc2c(cc1Cl)NCNS2(=O)=O [HYDROCHLOROTHIAZIDE]: > 100 µM (inactive)
- COc1ccc(NC(=S)N/N=C\c2ccc(NC(C)=O)cc2)cc1: > 100 µM (inactive)
- CC(C)=CC[C@]12CCN[C@H]1N(S(=O)(=O)c1ccccc1)c1ccccc12: 17.6 µM (inactive)

Here is the next item to consider.
Entry O=S(=O)(c1cnccc1N1CCN(CCO)CC1)N1CCCC1 ; GI50 = > 100 µM (inactive)

###

# GI50 per entry
- System: RXF 393
- test-protocol: NCI tumour cell line growth inhibition, 48 h
Calls of active or inactive are those of the source. Rule as the data show it: active = GI50 up to about 1.1 µM and inactive = higher.

* Cc1cc2cc3c(O)nc(O)nc3nc2cc1C | 52.2 µM (inactive)

Entry CON(C)C(=O)C(C)N(Cc1ccccc1)Cc1ccccc1 (centres undefined) ; GI50 = > 100 µM (inactive)

Entry O=C1CCN/C(=N\C(=O)C(F)(F)F)N1CCc1c[nH]c2ccccc12 ; GI50 = > 100 µM (inactive)

Entry N[C@H]1CCN(c2c(F)cc3c(=O)c(C(=O)O)cn4c3c2Oc2cc3c(ccc5ccccc53)cc2-4)C1 ; GI50 = 6.41 µM (inactive)

###

- Tested on: LXFL 529
- test-protocol: NCI tumour cell line growth inhibition, 48 h
Calls of active or inactive are those of the source. Cut-off read from the data, not from the text of the source: active = GI50 up to about 1.1 µM and inactive = higher.
Reply using exactly one outcome from active, inactive

Solved cases (8 shown):
• COc1ccc2c(c1)C(=O)N1CCOC1C2C(=O)O (stereo unspecified) = inactive
• CC(N)Cc1ccc(Cl)cc1 (stereo unspecified) = inactive
• CCOC(=O)COc1ccc(OC)c2c1C(=O)CCC2 = inactive
• CCOC(=O)/C(=C\c1ccc(N(CCC#N)CCC#N)cc1C)NC(=O)/C=C/c1ccccc1 = inactive
• COc1cc(OC)c(Oc2cccc(OC)c2OC)c(OC)c1 = inactive
• CN1C(=O)CC2(C)c3cc(O)cc(Br)c3N(C)C12 (stereo unspecified) = inactive
• O=C1OC2C(O)COC2(O)C1(O)Cc1c[nH]c2ccccc12 (stereo unspecified) = inactive
• COC(=O)c1nc(NN)cc(O)c1CCCCCc1c(O)nc(NN)nc1C(=O)OC = inactive

Ask: What is the recorded call for this compound in the test? O=C1C2CC=CCC2C(=O)C12CCc1ccccc12 (stereo unspecified)
Result: inactive

Ask: What is the recorded call for this compound in the test? CC(Oc1ccc2c(-c3ccc(Cl)cc3)cc(=O)oc2c1)C(=O)O (stereo unspecified)
Result: inactive

###

- Tested on: LOX IMVI
- test-protocol: NCI tumour cell line growth inhibition, 48 h
Calls of active or inactive are those of the source. No stated cut-off is given here; in the data, active = GI50 up to about 1.1 µM and inactive = higher.
Reply using exactly one outcome from label 1 = active, label 0 = inactive

Solved cases (5 shown):
- CC1=Nn2c(nnc2-c2ccc(Cl)cc2)NC(C)(C)C1: label 0
- CCOC(=O)C(=O)Nc1ccc(Cl)cc1C: label 0
- CSC[S+]([O-])C[C@H](CO)NC(=O)/C=C/c1c(C)[nH]c(=O)[nH]c1=O (stereo partly specified): label 1
- COc1cc2[nH]c(=O)[nH]c2c2c(C)c[nH]c12: label 0
- COC1/C=C\C=C(/C)C(=O)Nc2cc3nc4ccc(Br)cc4oc-3c(c2=O)CC(C)CC(OC)C(O)C(C)/C=C(\C)C1OC(N)=O (stereo unspecified): label 1

Ask: What is the recorded call for this compound in the test? COc1ccc2nc3c([N+](=O)[O-])ccc(NCCCN(C)C)c3c(N)c2c1
Result: label 0

Ask: What is the recorded call for this compound in the test? N#CCCN(CCC#N)c1ccc(/C=C2\SC(=S)NC2=O)cc1
Result: label 0

Ask: What is the recorded call for this compound in the test? CN(C)CCNC(=O)c1cc([N+](=O)[O-])cn1C
Result: label 0

Ask: What is the recorded call for this compound in the test? C#CCn1c(=O)c(C)cn(/C(=C/C(=O)OCC)C(=O)OCC)c1=O
Result: label 0

Ask: What is the recorded call for this compound in the test? COC(=O)[C@@]12OC[C@]34[C@H]([C@@H](O)[C@@H]1O)[C@@]1(C)CC(=O)C(O)=C(C)[C@@H]1C[C@H]3OC(=O)[C@H](OC(=O)/C=C(\C)C(C)C)[C@@H]24 [BRUCEANTIN]
Result: label 1

Ask: What is the recorded call for this compound in the test? Cc1ccc(C)c(NC(=O)CC/C(=N\NC(=O)c2c(O)ccc3ccccc23)C(C)C(=O)c2ccc(O)cc2)c1 (stereo unspecified)
Result: label 0

Ask: What is the recorded call for this compound in the test? C=C1C(=O)OC2/C=C(\CO)C3OC3C3OC3(C)CC(OC(=O)/C(=C/C)CO)C12 (stereo unspecified)
Result: label 0

Ask: What is the recorded call for this compound in the test? Cc1nc2cccc(F)c2c(=O)n1-c1nnc(C2CC2)s1
Result: label 0

Ask: What is the recorded call for this compound in the test? CCCCCCNC(=O)c1cc(CCc2cc(O)ccc2O)ccc1O
Result: label 0

Ask: What is the recorded call for this compound in the test? COc1ccc(-c2c(N)[n+]([O-])c3cc(C)c(C)cc3[n+]2[O-])cc1OC
Result: label 0

Ask: What is the recorded call for this compound in the test? CCc1c(C)[nH]c2c1/C(=N/N=C1\CCCc3[nH]c(C)c(CC)c31)CCC2
Result: label 0

###

- Test system: SF-268
- test-protocol: NCI tumour cell line growth inhibition, 48 h
Calls of active or inactive are those of the source. Rule as the data show it: active = GI50 up to about 1.1 µM and inactive = higher.
# GI50 per entry

Entry CC(C)/C(Cl)=N/OC(=O)Nc1ccc(F)c(Cl)c1 ; GI50 = 19.4 µM (inactive)

Entry Fc1ccc(NCn2nc(COc3ccccc3Cl)n(/N=C/c3ccc(-c4ccc(Cl)cc4Cl)o3)c2=S)cc1Cl ; GI50 = 79.1 µM (inactive)

Entry CCN(CC)CCNc1ccc2ncn3c4cc(O)ccc4c(=O)c1c23 ; GI50 = 2.09 µM (inactive)

Entry CC1(C)OC(=O)N(c2ccccc2)C12C=Cc1cc([N+](=O)[O-])cc([N+](=O)[O-])c1O2 (configuration not stated) ; GI50 = 98.9 µM (inactive)

Entry Nc1nc(SCCC/C=C/I)nc2c1ncn2C1OC(COP(=O)(O)O)C(O)C1O (configuration not stated) ; GI50 = > 100 µM (inactive)

###

- Tested on: EKVX
- test-protocol: NCI tumour cell line growth inhibition, 48 h
Where a name gives a salt, the structure may show the parent alone. Calls of active or inactive are those of the source. No stated cut-off is given here; in the data, active = GI50 up to about 1.1 µM and inactive = higher.
Reply using exactly one outcome from 1 (yes) for active, 0 (no) for inactive

- C=C(C)[C@H]1CC(=O)[C@@]2(C)C[C@H]3O[C@]3(C)CC/C=C(\C)CC[C@H]12: 0 (no)
- Cc1cccc(C(C)C)c1NC(=O)C(=O)C(C(=O)c1ccccc1F)C1OC(=O)c2ccccc21 (centres undefined): 0 (no)
- CCCCCCCCC(=O)NCCCNCCCNC(=O)CCCCCCCC: 0 (no)
- N#Cc1c(N)c2c(c(-c3ccccc3)c1-c1ccccc1)C(=O)N(O)C2=O: 0 (no)
- C=C(C)CC(C)(c1cc2ccccc2n1C)N1CCOCC1 (centres undefined): 0 (no)

Ask: What is the recorded call for this compound in the test? CC12CO[C@@](C)(CC(S(=O)(=O)c3ccccc3)C1)O2 (some centres undefined)
Result: 0 (no)

Ask: What is the recorded call for this compound in the test? Cc1ccc2c(c1)SSSSS2
Result: 0 (no)

Ask: What is the recorded call for this compound in the test? CCOC(=O)C(=O)Nc1ccc(Cl)cc1C
Result: 0 (no)

Ask: What is the recorded call for this compound in the test? Nn1c(S)nnc1C12CC3CC(CC(C3)C1)C2
Result: 0 (no)

Ask: What is the recorded call for this compound in the test? O=C1c2cccnc2C(=O)c2c1nc1ccccc1c2-c1cncc(-c2c3c(nc4ccccc24)C(=O)c2cccnc2C3=O)c1
Result: 1 (yes)

Ask: What is the recorded call for this compound in the test? C=C1C(=O)OC2/C=C(\CO)C3OC3C3OC3(C)CC(OC(=O)/C(=C/C)CO)C12 (centres undefined)
Result: 0 (no)

Ask: What is the recorded call for this compound in the test? COc1ccc2c(=O)c(C)c(-c3ccccc3)oc2c1CN(C)C [DIMEFLINE HYDROCHLORIDE]
Result: 0 (no)

Ask: What is the recorded call for this compound in the test? O=C1CSC2(CC(/C=C/c3cccc(Br)c3)=NN2c2cccc(S(=O)(=O)O)c2)N1c1nc2ccccc2s1 (centres undefined)
Result: 0 (no)

Ask: What is the recorded call for this compound in the test? CCOC(=O)NC(=O)c1cn(C(CC)COC(=O)NCCCCCCNC(=O)OCC(CC)n2cc(C(=O)NC(=O)OCC)c(=O)[nH]c2=O)c(=O)[nH]c1=O (centres undefined)
Result: 0 (no)
